These entries and their values trace back to ChEMBL document CHEMBL3392971.

Below is a list of entries, each paired with its recorded Ki value.
# Study System: Protein kinase C epsilon type (Homo sapiens, UniProt Q02156)
# Sequence (Q02156 whole entry): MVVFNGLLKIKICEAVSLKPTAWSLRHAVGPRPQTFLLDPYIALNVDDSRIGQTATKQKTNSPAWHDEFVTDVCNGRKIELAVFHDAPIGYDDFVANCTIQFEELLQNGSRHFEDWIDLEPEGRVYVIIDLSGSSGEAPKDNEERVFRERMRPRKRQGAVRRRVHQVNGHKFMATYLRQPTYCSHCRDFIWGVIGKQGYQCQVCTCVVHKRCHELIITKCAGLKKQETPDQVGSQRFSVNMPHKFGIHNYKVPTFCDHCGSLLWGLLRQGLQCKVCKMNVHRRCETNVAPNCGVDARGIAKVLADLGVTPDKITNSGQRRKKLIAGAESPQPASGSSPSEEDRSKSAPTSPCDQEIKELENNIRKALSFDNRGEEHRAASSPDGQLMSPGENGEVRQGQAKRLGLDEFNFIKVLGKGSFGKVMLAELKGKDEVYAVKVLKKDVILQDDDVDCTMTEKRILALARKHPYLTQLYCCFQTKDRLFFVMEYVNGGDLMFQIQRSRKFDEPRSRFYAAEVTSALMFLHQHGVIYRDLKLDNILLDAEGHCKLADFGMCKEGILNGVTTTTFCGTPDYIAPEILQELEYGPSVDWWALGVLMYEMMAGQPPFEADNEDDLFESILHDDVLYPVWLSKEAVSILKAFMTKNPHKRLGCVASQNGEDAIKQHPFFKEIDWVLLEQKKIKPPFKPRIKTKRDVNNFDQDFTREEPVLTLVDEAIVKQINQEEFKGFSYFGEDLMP
# Method Description: Displacement of [20-3H] phorbol 12, 13-dibutylate from recombinant PKCepsilon (unknown origin) in presence of 100 ug/ml 100% phosphatidylserine
Record the value in nM, omitting the unit from your answer.

Some compounds with recorded Ki:
CCCCC/C=C\C/C=C\CCCCCCC/C=C1\CC(CO)(COC(=O)C(C)(C)C)OC1=O (centres undefined)
4.1
CCCCCCCCC#CCCCCCCCC(=O)OCC1(CO)C/C(=C\CC(C)C)C(=O)O1 (centres undefined)
4.79
CCCCCC1CC1CC1CC1CCCCCCC/C=C1/CC(CO)(COC(=O)C(C)(C)C)OC1=O (centres undefined)
15.2

Ask | Reported Ki for CCCCCC=CCC=CCCCCCCCC(=O)OCC1(CO)C/C(=C/CC(C)C)C(=O)O1 (centres undefined) : what is it?
Reply | 12.2

Ask | May I ask what Ki has been recorded for CCCCCC1CC1CC1CC1CCCCCCCC(=O)OCC1(CO)C/C(=C/CC(C)C)C(=O)O1 (centres undefined) ?
Reply | 9.8

Ask | Please report the recorded Ki for CCCCCCCCCCCCCCCCCC(=O)OCC1(CO)C/C(=C/CC(C)C)C(=O)O1 (centres undefined) .
Reply | 19.3

Ask | Recorded Ki for CCCCC/C=C\C/C=C\CCCCCCC/C=C1/CC(CO)(COC(=O)C(C)(C)C)OC1=O (centres undefined) , please?
Reply | 5.06

Ask | Recorded Ki for CCCCCCCCCCCCCCCCCC(=O)OCC1(CO)C/C(=C\CC(C)C)C(=O)O1 (centres undefined) , please?
Reply | 11.4

Ask | Can you look up the measured Ki of CCCCCCC#CC#CCCCCCCCC(=O)OCC1(CO)C/C(=C\CC(C)C)C(=O)O1 (centres undefined) for me?
Reply | 5.24

Ask | Which Ki is listed for CC(C)CC(C/C=C1\CC(CO)(COC(=O)C(C)(C)C)OC1=O)CC(C)C (centres undefined) ?
Reply | 1.03

Ask | Would you kindly share the measured Ki for CCCCCC1CC1CC1CC1CCCCCCCC(=O)OCC1(CO)C/C(=C\CC(C)C)C(=O)O1 (centres undefined) ?
Reply | 5.5

Ask | Consider the compound shown here: CC(C)C/C=C1\CC(CO)(COC(=O)CC(CC(C)C)CC(C)C)OC1=O (centres undefined) What is its recorded Ki?
Reply | 1.21

Ask | Please report the recorded Ki for CCCCCC1OC1CC1OC1CCCCCCCC(=O)OCC1(CO)C/C(=C\CC(C)C)C(=O)O1 (centres undefined) .
Reply | 7.46

Ask | # input compound: CCCCCC1OC1CC1OC1CCCCCCCC(=O)OCC1(CO)C/C(=C/CC(C)C)C(=O)O1 (centres undefined) ; wanted: its Ki
Reply | 16.3

Ask | For the compound CCCCCCCCC#CCCCCCCCC(=O)OCC1(CO)C/C(=C/CC(C)C)C(=O)O1 (centres undefined) , what Ki is on record?
Reply | 7.12

Ask | Given CCCCCC=CCC=CCCCCCCCC(=O)OCC1(CO)C/C(=C\CC(C)C)C(=O)O1 (centres undefined) , state its recorded Ki.
Reply | 2.14

Ask | Returns the measured Ki for the input compound. Input: CCCCCC1CC1CC1CC1CCCCCCC/C=C1\CC(CO)(COC(=O)C(C)(C)C)OC1=O (centres undefined)
Reply | 8.3

Ask | // lookup Ki for CCCCCCC#CC#CCCCCCCCC(=O)OCC1(CO)C/C(=C/CC(C)C)C(=O)O1 (centres undefined)
Reply | 13.4

Ask | Given CC(C)C/C=C1/CC(CO)(COC(=O)CC(CC(C)C)CC(C)C)OC1=O (centres undefined) , state its recorded Ki.
Reply | 2.37
